- Test system: K-562 leukemia
- protocol: NCI-60 one-dose screen, 48 h (100 = growth as untreated, 0 = no growth, -100 = all killed)
- protocol.conditions: 10 µM
About 83,000 compounds went through this panel and 20% of them were active in at least one assay; those are over-represented in the sample as a whole.
property.name: growth (%)
Report only the number, with the unit % understood.

Write down the reported growth of COc1ccc(/C=C2\CCC3C(CCCC34OCCO4)C2=O)cc1 (configuration not stated) , test system: K-562 leukemia.
39.7

Give K-562 leukemia growth for COc1ccc2nc(C)cc(Nc3ccc(Cl)cc3)c2c1
97.9

Observed growth on K-562 leukemia for O=C(COCc1c(-c2ccccc2)no[n+]1[O-])Nc1nc(-c2ccc(Cl)cc2)cs1 , please.
108

Fill in the recorded growth for this molecule, with K-562 leukemia as test system: COc1ccc(-c2cn[nH]c2-c2cc(OC)c(OC)c(OC)c2)cc1
6.36

Form field - read-out: growth; system: K-562 leukemia; submitted item: Cc1cc(C)c(C(=O)OC(C)CNC2CCCCC2)c(C)c1 (configuration not stated)
81.2

Checklist item: growth tested on K-562 leukemia, entry O=C1c2cc(Cl)ccc2-c2c(O)cc(Cl)cc21 , value?
57.2

For K-562 leukemia, provide growth of COc1cc(CSc2nc3ccc(Cl)cc3c(=O)n2Cc2ccccc2)cc(OC)c1OC please.
12.9

Form entry - test system: K-562 leukemia; read-out: growth; molecule: COc1ccc(-c2cc(/C=C3\C(=O)Nc4cc(Cl)ccc43)[nH]n2)cc1
13.3

Hi! What's the reported growth for CC(C)C[C@H](NC(=O)CCn1ccc2ccccc2c1=O)B(O)O on K-562 leukemia?
62.7

Record lookup: for K-562 leukemia, what growth belongs to O=C(COc1ccc(-c2nc3ccccc3[nH]2)cc1)N=Nc1c(O)[nH]c2ccccc12 ?
44.8

Find the measured growth: item CCCCCCCCCCCCCCCC(=O)N1CCN(C)CC1 , target or system K-562 leukemia.
15.9

Hello, I am looking for reported growth with K-562 leukemia for Cc1[nH]nc2c(=S)[nH]c(=O)[nH]c12 . Could you help?
105
